pKd listing for selected binders.
# systemName: T1, human ROR1-His protein (fused with a His protein tag, Acrobiosystems, RO1-H522y) (human, UniProt Q01973 30-403)
# T1 construct: also called recombinant human ROR1-His protein; not shown: His tag
# T1 sequence (Q01973 30-403 limits assumed): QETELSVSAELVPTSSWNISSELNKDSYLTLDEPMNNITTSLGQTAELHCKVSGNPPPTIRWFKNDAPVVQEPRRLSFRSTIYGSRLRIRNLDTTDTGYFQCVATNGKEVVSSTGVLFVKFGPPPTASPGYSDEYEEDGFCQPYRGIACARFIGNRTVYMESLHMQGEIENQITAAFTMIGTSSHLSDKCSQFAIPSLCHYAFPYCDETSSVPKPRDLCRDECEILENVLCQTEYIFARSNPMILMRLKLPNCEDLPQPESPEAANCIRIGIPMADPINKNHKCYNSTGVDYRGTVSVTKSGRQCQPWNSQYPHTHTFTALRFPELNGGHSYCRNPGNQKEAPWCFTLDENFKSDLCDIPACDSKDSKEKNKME
# experimentDescription: SPR Biacore T200, antibody Fc-captured, antigen as analyte
Lab note: report pKd as minus log10 of the concentration in molar units, number only.

Some solved entries appear below for comparison.
humanized single domain antibody AHP15773-VHH4 (Fc fusion, Humanized VHH expressed from pcDNA3.4-Fc (Human IgG1); not shown: human IgG1 Fc of the pcDNA3.4-Fc (Human IgG1) expression vector) EVQLVESGGGLVQPGGSLRLSCAASGSDFSDSAMGWYRQAPGKQREFVAAIGAGGITTYADSVKGRFTISRDNAKNTLYLQMNSLRAEDTAVYFCNFAPGWYPPGYQYWGQGTLVTVSS | 6.50
single domain antibody AHP15773 (Fc fusion, VHH expressed from pcDNA3.4-Fc (HuIgG1); also called AHP15773-VHH; not shown: human IgG1 Fc of the pcDNA3.4-Fc (HuIgG1) expression vector) EVQLVESGGGLVQPGGSLRLSCLASGSDFSDSAMGWYRQAPGKQREFVAAIGAGGITTYADSVKGRFTISRDSAKNIVYLQMSSLSPEDTAVYFCNFAPGWYPPGYQYWGQGTQVTVSS | 6.12
humanized single domain antibody AHP15485-VHH4 (Fc fusion, Humanized VHH expressed from pcDNA3.4-Fc (Human IgG1); not shown: human IgG1 Fc of the pcDNA3.4-Fc (Human IgG1) expression vector) EVQLVESGGGLVQPGGSLRLSCAASGRSFSNFQMGWFRQAPGKEREFVAASGWSGGPTYYADSVKGRFTISTDNSKNTLYLQMNSLRAEDTAVYYCYEDRVLSGRPVRYWGQGTLVTVSS | 6.49

// moving on: another record for pKd
Would you kindly share the measured pKd for single domain antibody AHP15485 (Fc fusion, Alpaca VHH expressed from pcDNA3.4-Fc (HuIgG1) in HEK293-6E; also called AHP15485-VHH; not shown: human IgG1 Fc of the pcDNA3.4-Fc (HuIgG1) expression vector) EVQLVESGGGLAQAGGSLSLSCTASGRSFSNFQMGWFRQAPGKEREFVAASGWSGGPTYYADSVKGRFTISTDDSKKTMYLQMNSLKPEDTAAYYCYEDRVLSGRPVRYWGRGTQVTVSS ?
6.55

Source: patent US20260158064A1
